Target: T1, APBA1_2, Q02410
T1 sequence (Q02410 742-832, limits assumed, looked up): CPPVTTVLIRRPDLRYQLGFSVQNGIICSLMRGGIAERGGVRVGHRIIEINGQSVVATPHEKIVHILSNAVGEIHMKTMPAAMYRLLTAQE
Assay: holdup assay
Parameters: key: below the threshold = too weak to quantify, mostly under pKd 3.1 to 4
Conditions: plain residues with an end cap or a label only (N-terminal biotin on a linker: ahx)
reportedMetric: pKd
Give bare numbers.

binder	pKd
QDEKVKESYV [ABCA1, O95477]	4.29

Could you now look at the following binder, please?
Exercise: Recorded pKd for HTHSYIETHV [CNKSR2, Q8WXI2] , please?
Solution: 4.16
